Where do these numbers come from? They come from PubChem BioAssay (NCI).

- System: UO-31 renal
- Assay Notes: NCI-60 one-dose screen, 48 h (100 = growth as untreated, 0 = no growth, -100 = all killed)
- Setup Conditions: 10 µM unless noted
This is part of a sample that, as a whole, favours compounds with a hit. Of some 83,000 tested, about 20% had one in any assay.
Classification field: criterion met = growth at or over 50%; criterion not met = growth under 50%.

- COc1cc2nc(N3CCCC3)nc(NCc3ccccc3)c2cc1OC: criterion met
- COc1ccc(CN2c3ccccc3Oc3ccccc32)cc1F: criterion met
- Cn1cc(C(=O)c2nc(-c3c[nH]c4ccc(F)cc34)no2)c2cc(F)ccc21: criterion met
- Oc1cccc(-c2nc(N3CCOCC3)c3c4c(sc3n2)CCCC4)c1: criterion not met

Qu. Is reported growth greater than or equal to 50% here: CC1=C[C@H]2c3c(c(O)c(O)c4oc(-c5ccccc5)cc(=O)c34)[C@H](c3cc(O)c(O)c4oc(-c5ccccc5)cc(=O)c34)[C@H]2C(C)(C)C1
Ans. criterion not met

---

- Tested on: NCI-H226 lung
- Assay Notes: NCI-60 one-dose screen, 48 h (100 = growth as untreated, 0 = no growth, -100 = all killed)
- Setup Conditions: 10 µM unless noted
Compounds without any hit were thinned out: in the full panel of roughly 83,000, 20% have a hit.
Parameter Measured: growth (%)
Use % as the unit, but write only the number.

Some compounds with recorded growth:
• COc1ccc(S(=O)(=O)N2CCCCC2)cc1NC(=O)c1[nH]c(C)c2c1CCCCC2=O = 46.2
• CC(=O)O[C@H]1CC[C@]2(C)[C@H]3CC=C4[C@@H]5CC(C)(C)CC[C@]5(C(=O)NCCNCCNCCN)CC[C@@]4(C)[C@]3(C)CC[C@H]2C1(C)C = 91.4

Qu. Field: growth (NCI-H226 lung). Entry: CN1CCN(Cc2ccc(NC(=O)c3cncc(C#Cc4cncn5ccnc45)c3)cc2C(F)(F)F)CC1
Ans. 34.4

Qu. Field: growth (NCI-H226 lung). Entry: COc1cc2c(cc1-c1c(C)noc1C)ncc1nc(-c3ccccn3)n([C@H](C)COC(F)F)c12
Ans. 57.8

---

- System: K-562 leukemia
- Assay Notes: NCI-60 one-dose screen, 48 h (100 = growth as untreated, 0 = no growth, -100 = all killed)
- Setup Conditions: 10 µM unless noted
This is part of a sample that, as a whole, favours compounds with a hit. Of some 83,000 tested, about 20% had one in any assay. Calls of active or inactive are those of the source. Rule for the calls: active = growth percent below 10; inactive = the rest.
Parameter Measured: growth

• C=C(C)[C@@H]1CC[C@]2(C(=O)OC)CC[C@]3(C)[C@H](CC[C@@H]4[C@@]5(C)C/C(=C/c6cccc(I)c6)C(=O)C(C)(C)[C@@H]5CC[C@]43C)[C@@H]12 = 96.9% (inactive)
• COc1cccc(-c2nn(C(C)(C)C)cc2-c2ccnc(NCCCNS(=O)(=O)c3ccc(C)cc3)c2)c1 = 101% (inactive)
• CNC(=O)c1cc(Oc2ccc(NC(=O)Nc3ccc(Cl)c(SC)c3)c(F)c2)ccn1 = 18.1% (inactive)
• c1csc(C2=NN3C(C2)c2ccccc2OC3c2ccncc2)c1 (centres undefined) = 99.2% (inactive)
• O=C1/C(=C/c2cn(-c3ccccc3)nc2-c2ccccc2)SC(=S)N1CCc1ccccc1 = 108% (inactive)
• O=Nc1c(O)c(Cl)cc2ccccc12 = 54.3% (inactive)
• Nc1nc2ncc(CCNc3ccc(C(=O)O)cc3)nc2c(=O)[nH]1 = 115% (inactive)
• O=c1cc(CSc2nnc(SCc3cc(=O)oc4c3ccc3ccccc34)o2)c2ccc3ccccc3c2o1 = 97.7% (inactive)

Attention now turns to another entry.
Qu. Given the compound COc1ccc(C(=O)c2sc3nc(C)cc(C)c3c2N)cc1OC , what is its reported growth?
Ans. 92.6% (inactive)

---

- System: NCI/ADR-RES ovarian
- Assay Notes: NCI-60 one-dose screen, 48 h (100 = growth as untreated, 0 = no growth, -100 = all killed)
- Setup Conditions: 10 µM unless noted
About 83,000 compounds went through this panel and 20% of them were active in at least one assay; those are over-represented in the sample as a whole.
Parameter Measured: growth (%)
Use % as the unit, but write only the number.

Some compounds with recorded growth:
* FC(F)(F)c1[nH]ncc1-c1nc2ccc3n[nH]c(C#Cc4cccnc4)c3c2c2c1CCCC2 | 72.1
* CC(=O)O[C@H]1[C@@H]2OC(=O)C(CSc3ccccc3)[C@@H]2C[C@H]2O[C@]2(C)CC/C=C(\C)CCC[C@@H]1C (some centres undefined) | 29.6

Qu. Given the compound COCCNc1ccc2c3c(cccc13)C(=O)N(CCN(C)C)C2=O , what is its reported growth?
Ans. 31.4

Qu. Given the compound O=C(O)c1ccc(NC(=O)c2ccc(-c3cccc([N+](=O)[O-])c3)o2)cc1 , what is its reported growth?
Ans. 98.5

Qu. Given the compound CCN(CC)c1ccc(-c2cc(-c3cc(OC)c(OC)c(OC)c3)nc(N3CCOCC3)c2C#N)cc1 , what is its reported growth?
Ans. 27.6

---

- Tested on: LOX IMVI melanoma
- Assay Notes: NCI-60 one-dose screen, 48 h (100 = growth as untreated, 0 = no growth, -100 = all killed)
- Setup Conditions: 10 µM unless noted
- Description: Growth inhibition of the LOX IMVI human tumor cell line is measured as a screen for anti-cancer activity. Cells are grown in 96 well plates and exposed to the test compound for 48 hours. Compounds are tested at a single concentration, which is 10^-5 M for most compounds. The reported endpoint is percent growth (GI% or GIPRCNT), where numbers from 0 - 100% represent growth inhibition, and numbers from -100% - 0 represent cell death. For example, a value of 40 represents 60% growth inhibition. […]
The panel holds about 83,000 compounds, 20% with a hit somewhere; the sample as a whole holds those more often. Activity calls are given as the source filed them. The calls were made as follows: active = growth percent below 10; inactive = the rest.
growth by entry:

• Oc1ccccc1-c1nnc(CNc2ccc(Cl)cc2)o1 = 7.71% (active)

Attention now turns to another entry.
Qu. Given the compound C#CCOc1ccc2ncnc(Nc3cccc(CNC(=O)C=C)c3)c2c1 , what is its reported growth?
Ans. 97.3% [8.25 µM] (inactive)

---

- Tested on: CCRF-CEM leukemia
- Assay Notes: NCI-60 one-dose screen, 48 h
- Setup Conditions: 10 µM unless noted
Compounds without any hit were thinned out: in the full panel of roughly 83,000, 20% have a hit. The source made the active and inactive calls. How the source made its calls: active means growth percent below 10; inactive means the rest.
Write down the outcome that applies. Available outcomes: YES (active), NO (inactive)

Qu. Recorded test call requested for CC1=C[C@H]2c3c(c(O)c(O)c4oc5c(C)cccc5c(=O)c34)[C@H](c3cc(O)c(O)c4oc5c(C)cccc5c(=O)c34)[C@H]2C(C)(C)C1
Ans. NO

Qu. Recorded test call requested for COc1cc2c(cc1-c1c(C)noc1C)ncc1nc(C3CCCCC3)n([C@H](C)COC(F)F)c12
Ans. NO

Qu. Recorded test call requested for COc1ccc2c(c1)C(=O)/C(=C/c1ccccn1)CC2
Ans. YES

Qu. Recorded test call requested for COc1ccc(Nc2cc(C)nc(N3CCN(c4ccnc5cc(Cl)ccc45)CC3)n2)cc1
Ans. NO

---

- System: LOX IMVI melanoma
- Assay Notes: NCI-60 one-dose screen, 48 h
- Setup Conditions: 10 µM unless noted
This is part of a sample that, as a whole, favours compounds with a hit. Of some 83,000 tested, about 20% had one in any assay. Activity calls are given as the source filed them. The calls were made as follows: active = growth percent below 10; inactive = the rest.
Write down the outcome that applies. Available outcomes: active, inactive

- COc1cc(CNc2oc(-c3ccccc3)c(-c3ccccc3)c2C#N)cc(CN2CCN(C)CC2)c1O: active
- COC(=O)c1cccc(NC(=O)c2ccc(-c3cccc(N)c3)o2)c1: inactive
- COc1ccc(-c2cc(C(=O)N=Nc3c(O)[nH]c4ccc(Br)cc34)no2)cc1: inactive
- Cc1cc(N2CCCCC2)nc(NC2CCCC(Nc3ccnc4cc(Cl)ccc34)C2)n1 (stereo not given): active

Qu. Recorded test call requested for COc1cc(/C=C/C(=O)Nc2cccnc2Nc2ccc(F)cc2)cc(OC)c1OC
Ans. inactive

Qu. Recorded test call requested for O=C(Nc1cccc2[nH]c(C(F)(F)F)nc12)c1ccc(-n2cnnn2)cc1
Ans. inactive

Qu. Recorded test call requested for Fc1ccc(CNc2cccc3[nH]c(C(F)(F)F)nc23)cc1
Ans. inactive

Qu. Recorded test call requested for Cc1ccccc1COc1ccc(-c2onc(C)c2-c2ccc(Cl)cc2)cc1
Ans. inactive

Qu. Recorded test call requested for O=[N+]([O-])c1ccc2c(c1)Cc1cc(F)ccc1-2
Ans. inactive

Qu. Recorded test call requested for C[n+]1ccccc1/C=C/c1ccc2cccc(O)c2n1
Ans. inactive

---

- System: OVCAR-5 ovarian
- Assay Notes: NCI-60 one-dose screen, 48 h (100 = growth as untreated, 0 = no growth, -100 = all killed)
- Setup Conditions: 10 µM unless noted
About 83,000 compounds went through this panel and 20% of them were active in at least one assay; those are over-represented in the sample as a whole.
Parameter Measured: growth (%)
Use % as the unit, but write only the number.

Some compounds with recorded growth:
- CSc1nc(NCc2ccccc2)c(C#N)c(-c2cccc([N+](=O)[O-])c2)n1: 90.7
- CC/C=C\C/C=C\C[C@H]1C/C=C2/C(=O)C=C[C@@H]2C/C=C\CCC(=O)O1: 44.6
- COc1ccc(SC2c3cc(OC)c(OC)cc3Oc3nc(N)c(C#N)c(N)c32)cc1 (stereo unspecified): -71.7
- O=C(N/N=C/c1c[nH]c2ccccc12)c1cc(-c2ccccc2)on1: 97.5

Qu. Given the compound O=C1Nc2c(ccc(Cl)c2Cl)/C1=C\c1cc(C(F)(F)F)cc(C(F)(F)F)c1 , what is its reported growth?
Ans. -28.8

Qu. Given the compound COc1cccc(-c2nc3sccn3c2-c2ccnc(NCCNS(=O)(=O)c3ccc(F)cc3)c2)c1 , what is its reported growth?
Ans. 49.3

Qu. Given the compound CCOC(=O)c1sc2nc(-c3cccc(O)c3)nc(N3CCOCC3)c2c1C , what is its reported growth?
Ans. 88.3

Qu. Given the compound O=C1/C(=C/c2ccccc2)SC(=S)N1CCc1ccc(O)cc1 , what is its reported growth?
Ans. 103

Qu. Given the compound COc1cc(/C=C/c2cc(O)c3cc(C(C)=O)c(=O)oc3c2)cc2c1O[C@]1(C)CC[C@@H](O)C(C)(C)[C@H]1C2 , what is its reported growth?
Ans. 70.6

Qu. Given the compound COc1ccc(-c2cc(NC(=O)Nc3ccc4ncsc4c3)no2)cc1 , what is its reported growth?
Ans. 98.6

Qu. Given the compound O=C1Nc2cc(-c3ccc(O)cc3)ccc2/C1=C/c1ccc[nH]1 , what is its reported growth?
Ans. 19

Qu. Given the compound COc1ccc(-c2n[nH]nc2-c2csc3ccccc23)cc1OC , what is its reported growth?
Ans. 66.2

Qu. Given the compound O=C1/C(=C/c2ccc(OCCCOc3ccc(Cl)cc3)cc2)N=C2SCCCN12 , what is its reported growth?
Ans. 102

Qu. Given the compound CCN(CC)S(=O)(=O)c1ccc(OC)c(NC(=O)c2[nH]c(C)c3c2CCCCC3=O)c1 , what is its reported growth?
Ans. 54.1

Qu. Given the compound COc1ccc(S(=O)(=O)N2CCCCCC2)cc1NC(=O)c1[nH]c(C)c2c1CCCCC2=O , what is its reported growth?
Ans. 50.5

Qu. Given the compound COc1cc(/C=C/C(=O)Nc2cccnc2Nc2ccc(F)cc2)cc(OC)c1OC , what is its reported growth?
Ans. 105

Qu. Given the compound COc1ccc(CN2c3ccccc3Oc3ccccc32)cc1O , what is its reported growth?
Ans. 91.5

Qu. Given the compound Oc1ccc(N=Cc2ccccc2O)cc1 , what is its reported growth?
Ans. 87.3

Qu. Given the compound N#CCCN=Nc1c(O)[nH]c2ccc(F)cc12 , what is its reported growth?
Ans. 97.7

Qu. Given the compound COc1ccc2c(c1)C(=O)/C(=C/c1cccnc1)CC2 , what is its reported growth?
Ans. 93
